Origin of measurements: patent US7501512B2

Each item that follows carries a reported IC50.
# experimental system: hYAK3 (Homo sapiens, UniProt O43781)
# Construct: made in house; host or cells: baculovirus expression system in Sf9 cells
# Sequence (O43781 124-526): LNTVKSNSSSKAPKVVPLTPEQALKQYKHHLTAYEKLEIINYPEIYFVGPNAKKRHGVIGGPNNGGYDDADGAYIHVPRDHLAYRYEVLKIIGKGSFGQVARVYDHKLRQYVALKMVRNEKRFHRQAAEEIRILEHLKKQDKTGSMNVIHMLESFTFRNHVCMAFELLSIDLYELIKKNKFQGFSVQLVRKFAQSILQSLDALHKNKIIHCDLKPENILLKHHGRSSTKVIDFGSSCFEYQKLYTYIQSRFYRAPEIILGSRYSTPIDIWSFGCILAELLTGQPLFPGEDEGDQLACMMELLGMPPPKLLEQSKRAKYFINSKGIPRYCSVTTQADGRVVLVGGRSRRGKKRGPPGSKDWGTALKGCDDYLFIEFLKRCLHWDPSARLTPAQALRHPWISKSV
# test details: YAK3 scintillation proximity assay using Ser164 of myelin basic protein as phosphoacceptor
# Type: biochemical
# conditions used: purified GST-hYak3-His6, 0.001 mM ATP, 4 μM Ser164 peptide; read-out: pIC50 values (converted)

Study these solved cases before continuing.
>  <compound>
COc1ccc2c(c1)CCn1c-2cc(NCCN(C)C)nc1=O [Iw]

>  <IC50>
10.2 to 100 nM

$$$$
>  <compound>
COc1ccc2c(c1)CCn1c-2cc(Nc2ccccc2Br)nc1=O [Ie]

>  <IC50>
102 to 1000 nM

$$$$
>  <compound>
COc1ccc2c(c1)CCn1c-2cc(Nc2c(OC)cccc2OC)nc1=O [Ia]

>  <IC50>
10.2 to 100 nM

$$$$

For the compound COc1ccc(CNc2cc3n(c(=O)n2)CCc2cc(OC)ccc2-3)cc1 [Iz] , what IC50 is on record?
102 to 1000 nM
